test system: 5-lipoxygenase pathway; test: Inhibitors of the Lipoxygenase Pathway (LOX), [14C]-5-HETE formation in rat neutrophils; assay type: cell-based; conditions: Neutrophil, cell prints 3μ .M, read-out: LOX I50, unit printed in the cell
measurement.type: IC50
Express the reported value numerically, then name its unit.

Need IC50, item CCOC(=O)C=C(C(=O)OCC)C(C(=O)OCC)=C1CSc2ccccc2N1
3000 nM
